- STUDY TARGET: DmoB (Arthrobacter globiformis, UniProt H0QJX4)
- Sequence (H0QJX4 1-171): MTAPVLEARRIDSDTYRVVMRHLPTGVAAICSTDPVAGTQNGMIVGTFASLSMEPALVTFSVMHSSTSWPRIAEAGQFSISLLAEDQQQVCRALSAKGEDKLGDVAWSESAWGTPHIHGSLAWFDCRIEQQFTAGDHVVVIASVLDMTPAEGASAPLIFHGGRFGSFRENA
PARAMETER MEASURED: Kd
Write the numeric value and append its unit.

Q) Lookup: Kd / DmoB (Arthrobacter globiformis, UniProt H0QJX4) / Cc1cc2nc3c(=O)[nH]c(=O)nc-3n(C[C@H](O)[C@H](O)[C@H](O)COP(=O)(O)O)c2cc1C
A) 1110 nM
